Origin of measurements: the RNAGym collection of RNA variant scans (doi:10.1126/science.aae0568)

B1: tRNA (parent)
chain: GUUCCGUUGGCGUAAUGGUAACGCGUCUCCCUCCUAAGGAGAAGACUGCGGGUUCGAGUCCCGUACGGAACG

# Variants of: B1
# ASSAY OVERVIEW: yeast fitness relative to wild type (ratio to wild type); higher = fitter; tRNA-Arg(CCU), competitive growth, 37 C, YPD
Fewer inactive variants are shown than the library holds.
Measured yeast fitness, listed per entry.

>  <CHANGES>
G63A A70C

>  <COMPARATOR>
=

>  <yeast fitness>
0.973

$$$$
>  <CHANGES>
G18C C60A

>  <COMPARATOR>
≤

>  <yeast fitness>
0.5

$$$$
>  <CHANGES>
U3C G25A A65C

>  <COMPARATOR>
=

>  <yeast fitness>
0.732

$$$$
>  <CHANGES>
C22G G52A

>  <COMPARATOR>
=

>  <yeast fitness>
0.772

$$$$
>  <CHANGES>
U2C U7A A65U

>  <COMPARATOR>
=

>  <yeast fitness>
0.725

$$$$
>  <CHANGES>
C24A C33G A40C C55U

>  <COMPARATOR>
=

>  <yeast fitness>
0.888

$$$$
>  <CHANGES>
C5G G9C A43G A70U

>  <COMPARATOR>
≤

>  <yeast fitness>
0.5

$$$$
>  <CHANGES>
C11U U35A G38A C61G

>  <COMPARATOR>
=

>  <yeast fitness>
0.565

$$$$
>  <CHANGES>
C4A C11G C31U G38C G52A C66G

>  <COMPARATOR>
=

>  <yeast fitness>
0.649

$$$$
>  <CHANGES>
A40G G56C

>  <COMPARATOR>
=

>  <yeast fitness>
0.725

$$$$
>  <CHANGES>
A20G A21G C24U U59C C62A

>  <COMPARATOR>
≤

>  <yeast fitness>
0.5

$$$$
>  <CHANGES>
G6C U19G G48C

>  <COMPARATOR>
≤

>  <yeast fitness>
0.5

$$$$
>  <CHANGES>
U7G A14G U35G C46A G63C A65U

>  <COMPARATOR>
≤

>  <yeast fitness>
0.5

$$$$
>  <CHANGES>
G9C A20U C27G A42C C49U A65C

>  <COMPARATOR>
≤

>  <yeast fitness>
0.5

$$$$
>  <CHANGES>
U32A C55A C61U

>  <COMPARATOR>
=

>  <yeast fitness>
0.536

$$$$
>  <CHANGES>
C34G A37C C62U C66A

>  <COMPARATOR>
≤

>  <yeast fitness>
0.5

$$$$
>  <CHANGES>
C11A A20U C22U

>  <COMPARATOR>
=

>  <yeast fitness>
0.552

$$$$
>  <CHANGES>
A21U A37U A40U G50C G56C

>  <COMPARATOR>
≤

>  <yeast fitness>
0.5

$$$$
>  <CHANGES>
U7A U16C A65U

>  <COMPARATOR>
=

>  <yeast fitness>
0.688

$$$$
>  <CHANGES>
G9A A36G G50C U64C

>  <COMPARATOR>
=

>  <yeast fitness>
0.645

$$$$
>  <CHANGES>
C4G G17A G56C C60G C66U

>  <COMPARATOR>
≤

>  <yeast fitness>
0.5

$$$$
>  <CHANGES>
G6C G39A

>  <COMPARATOR>
=

>  <yeast fitness>
0.86

$$$$
